meta.source: patent US10428051B2

Assay Target: human σ1 receptor (Homo sapiens)
Sequence (Q99720 whole entry): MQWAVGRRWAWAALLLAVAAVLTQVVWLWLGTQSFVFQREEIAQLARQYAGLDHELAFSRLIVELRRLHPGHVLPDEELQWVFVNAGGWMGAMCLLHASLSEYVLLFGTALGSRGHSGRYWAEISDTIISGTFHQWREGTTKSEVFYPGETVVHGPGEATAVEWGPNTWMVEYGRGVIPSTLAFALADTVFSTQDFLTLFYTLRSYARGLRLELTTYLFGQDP
Experimental Details: biochemical
Format: binding
Experimental Readout: Ki

Before answering, review these 7 worked examples.
- Compound: "CCC(=O)N(CC1(N2CCN(CC(C)(C)OC)CC2)CCOCC1)c1cccc(C(F)(F)F)n1"
  Measured: "> 500 nM"
- Compound: "CCC(=O)N(CC1(N2CCN(Cc3ccccc3)CC2)CCOCC1)c1ccccc1F"
  Measured: "< 100 nM"
- Compound: "CCC(=O)N(CC1(N2CCN(C(CO)c3ccccc3)CC2)CCOCC1)c1ccccn1 (centres unmarked)"
  Measured: "> 500 nM"
- Compound: "CCC(=O)N(CC1(N2CCN(Cc3ccccc3)CC2)CCOCC1)c1cccc(F)c1"
  Measured: "< 100 nM"
- Compound: "CCC(=O)N(CC1(N2CCN(Cc3ccccc3)CC2)CCOCC1)c1ccccn1"
  Measured: "< 500 nM"
- Compound: "CCC(=O)N(CC1(N2CCN(Cc3ccc(F)c(F)c3)CC2)CC1)c1ccccc1"
  Measured: "< 100 nM"
- Compound: "CCC(=O)N(CC1(N2CCN(Cc3ccccc3F)CC2)CC1)c1ccccc1"
  Measured: "< 100 nM"

Record for CCC(=O)N(CC1(N2CCN(Cc3ccccc3)CC2)CCOCC1)c1nc(C(F)(F)F)ccc1C#N under target or system human σ1 receptor (Homo sapiens): Ki reported as < 500 nM
